Here, each record is paired with measured solubility at 30 min data.
- assay-name: In vitro water solubility experiment
- cond: 25 °C, water, thermodynamic from solid

Sample records with solubility at 30 min:
INSERT INTO measurements (compound, result) VALUES
  ('N=C(N)NCCC[C@@H]1NC(=O)[C@@H](CCCCNC(=O)CCOCCOCCOCCOCCNC(=O)CC[C@H](NC(=O)CCSC2CC(=O)N(CCCCCC(=O)NN=C3CC4(C3)C(=O)[O][Pt]([NH2])([NH2])[O]C4=O)C2=O)C(=O)NCCOCCOCCOCCOCCC(=O)NCCCC[C@H]2NC(=O)[C@@H](Cc3ccccc3)NC(=O)[C@H](CC(=O)O)NC(=O)CNC(=O)[C@H](CCCNC(=N)N)NC2=O)NC(=O)[C@@H](Cc2ccccc2)NC(=O)[C@H](CC(=O)O)NC(=O)CNC1=O (stereo partly drawn)', '> 30 mg/mL'),
  ('N=C(N)NCCC[C@@H]1NC(=O)[C@@H](CCCCNC(=O)CCOCCOCCOCCOCCNC(=O)CC[C@H](NC(=O)CCSC2CC(=O)N(CCOCCOCCC(=O)NN=C3CC4(C3)C(=O)[O][Pt]([NH2])([NH2])[O]C4=O)C2=O)C(=O)NCCOCCOCCOCCOCCC(=O)NCCCC[C@H]2NC(=O)[C@@H](Cc3ccccc3)NC(=O)[C@H](CC(=O)O)NC(=O)CNC(=O)[C@H](CCCNC(=N)N)NC2=O)NC(=O)[C@@H](Cc2ccccc2)NC(=O)[C@H](CC(=O)O)NC(=O)CNC1=O (stereo partly drawn)', '> 30 mg/mL');

Now for the compound whose solubility at 30 min we want.
stdin: I'd like to know its solubility at 30 min. The compound in question is [NH2][Pt]1([NH2])[O]C(=O)C2(CCC2)C(=O)[O]1 [carboplatin, reference compound]
stdout: 16.6 mg/mL
